tested on: Saccharomyces cerevisiae; experiment: protein stability index of tFT-peptide fusion (C-terminal peptide) (PSI (0-1 scale)); higher = more stable (slower turnover); settings: genetic background: wild type; temperature: 30 C;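 further: PSI is a weighted mean of sequencing reads over stability bins, variants kept only with over 10 reads, mCherry proximal and sfGFP distal, peptide attached via GGGS linker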
Quick list: protein stability index per entry.
When you answer, write just the number.

Record excerpt, results attached:
[
  {
    "sequence_data": "EATGSLISFCGW",
    "study_system": "Saccharomyces cerevisiae",
    "observed": 0.665
  },
  {
    "sequence_data": "SLRTREGSSRRE",
    "study_system": "Saccharomyces cerevisiae",
    "observed": 0.674
  },
  {
    "sequence_data": "PSPPYSRPPLPP",
    "study_system": "Saccharomyces cerevisiae",
    "observed": 0.698
  }
]

What value of protein stability index has been reported for the following sequence? `GIGLVIEDKLLL`
0.683

Another: `LLRLTGRRHVGG`
0.748

Request: `LEQNCYYGEFSS`
0.665

Query `PPPLAPPTSLRF` next
0.715

Record: `APPRPPTLHRPH`
0.721

And `AGGVNWWSSWRV` ?
0.745

Ok, now `EGWVVYFEEDLE`
0.735

`GPILVWVMADWG` , same question.
0.447

One more sequence: `KRSIEIRTKIKL`
0.7

Likewise for `GVLDTRWIIIST` ?
0.53

Next entry: `IFPPPLLPSLPT`
0.703

Proceed to `PYGFNPSANGSS`
0.696

Continue with `FVQEQGAKNNRH`
0.746

Same for `LLVFSLLYPCLV`
0.345

Can you check `PFTHRTYREGRT` next?
0.676

`GYSPMGFSFFPV` , same question.
0.673

Another: `GGWWGGGGAWSG`
0.689

Quick one: `ARLCLVRTKRHS`
0.684

Lookup `PHLEVPARPRGT`
0.715

====

system: Saccharomyces cerevisiae; test: protein stability index of tFT-peptide fusion (C-terminal peptide) (PSI (0-1 scale)); higher = more stable (slower turnover); settings: genetic background: doa10 deletion; temperature: 30 C
Response key: yes means protein stability index >= 0.2; no means protein stability index < 0.2.

[
  {
    "sequence_data": "SPTQIPLWILAS",
    "study_system": "Saccharomyces cerevisiae",
    "category": "no"
  },
  {
    "sequence_data": "LVSLCYAYPRYC",
    "study_system": "Saccharomyces cerevisiae",
    "category": "yes"
  },
  {
    "sequence_data": "PFLLLVSPISSC",
    "study_system": "Saccharomyces cerevisiae",
    "category": "yes"
  }
]

Would you say `LLYHFCLFFFRE` shows protein stability index at minimum 0.2?
yes

And `FLMLFVVLWLFL` ?
yes

Now the sequence `FNLWCRQLASIE`
yes

Now consider `KLRMGRYIVRII` .
no

Moving on to the next sequence: `TVIVCCHLEVVY`
no

====

test system: Saccharomyces cerevisiae; assay: protein stability index of tFT-peptide fusion (C-terminal peptide) (PSI (0-1 scale)); higher = more stable (slower turnover); conditions: genetic background: wild type; temperature: 30 C
measured_metric: protein stability index

[
  {
    "sequence_data": "PPPPPPAASSSP",
    "protein stability index": 0.692
  },
  {
    "sequence_data": "RCCGGSEVVRAG",
    "protein stability index": 0.705
  },
  {
    "sequence_data": "GVFGLMVGWGWG",
    "protein stability index": 0.671
  },
  {
    "sequence_data": "RARFSASCRYRV",
    "protein stability index": 0.671
  },
  {
    "sequence_data": "WADAAYLGCWWD",
    "protein stability index": 0.737
  }
]

Entry `LWLFIVCWVGCV` : reported protein stability index = ?
0.247

Just for reference, the supplement of paper PMC10724198 is where these values come from.
